Hey, just so you know, these numbers are from patent US20140349970A1.

target: Syk catalytic domain (aa 356-635 with a C-terminal His-tag) (Homo sapiens, UniProt P43405)
Construct: His-tag (C); made in house
procedure.summary: In vitro Syk kinase activity measured by trFRET, Syk catalytic domain
Type: biochemical
condition.notes: Syk catalytic domain (aa 356-635), trFRET, 0.001 mM ATP
measurement.name: IC50

>  <compound.string>
CN(C)CCNC(=O)Cc1cccc(-c2cc3c(ncc4cnn(C)c43)[nH]2)c1

>  <IC50>
100 to 1000 nM

$$$$

## Task Param item = "CCCNC(=O)c1ccc(-c2nc(C)n3c2cnc2[nH]ccc23)cc1Cl" ; retrieve measured IC50.
## Result 100 to 1000 nM

## Task Param item = "CS(=O)(=O)c1cccc(-c2cc3c(ncc4cnc(CCCNC(=O)C(F)(F)F)n43)[nH]2)c1" ; retrieve measured IC50.
## Result 100 to 1000 nM

## Task Param item = "Cn1cc(-c2cc3c(ncc4cnn(C)c43)[nH]2)c2ccc(C(=O)NC(C)(C)CO)cc21" ; retrieve measured IC50.
## Result < 100 nM
